Molecular target: Receptor tyrosine-protein kinase erbB-2 (Homo sapiens) (UniProt P04626)
Sequence (P04626 whole entry, looked up): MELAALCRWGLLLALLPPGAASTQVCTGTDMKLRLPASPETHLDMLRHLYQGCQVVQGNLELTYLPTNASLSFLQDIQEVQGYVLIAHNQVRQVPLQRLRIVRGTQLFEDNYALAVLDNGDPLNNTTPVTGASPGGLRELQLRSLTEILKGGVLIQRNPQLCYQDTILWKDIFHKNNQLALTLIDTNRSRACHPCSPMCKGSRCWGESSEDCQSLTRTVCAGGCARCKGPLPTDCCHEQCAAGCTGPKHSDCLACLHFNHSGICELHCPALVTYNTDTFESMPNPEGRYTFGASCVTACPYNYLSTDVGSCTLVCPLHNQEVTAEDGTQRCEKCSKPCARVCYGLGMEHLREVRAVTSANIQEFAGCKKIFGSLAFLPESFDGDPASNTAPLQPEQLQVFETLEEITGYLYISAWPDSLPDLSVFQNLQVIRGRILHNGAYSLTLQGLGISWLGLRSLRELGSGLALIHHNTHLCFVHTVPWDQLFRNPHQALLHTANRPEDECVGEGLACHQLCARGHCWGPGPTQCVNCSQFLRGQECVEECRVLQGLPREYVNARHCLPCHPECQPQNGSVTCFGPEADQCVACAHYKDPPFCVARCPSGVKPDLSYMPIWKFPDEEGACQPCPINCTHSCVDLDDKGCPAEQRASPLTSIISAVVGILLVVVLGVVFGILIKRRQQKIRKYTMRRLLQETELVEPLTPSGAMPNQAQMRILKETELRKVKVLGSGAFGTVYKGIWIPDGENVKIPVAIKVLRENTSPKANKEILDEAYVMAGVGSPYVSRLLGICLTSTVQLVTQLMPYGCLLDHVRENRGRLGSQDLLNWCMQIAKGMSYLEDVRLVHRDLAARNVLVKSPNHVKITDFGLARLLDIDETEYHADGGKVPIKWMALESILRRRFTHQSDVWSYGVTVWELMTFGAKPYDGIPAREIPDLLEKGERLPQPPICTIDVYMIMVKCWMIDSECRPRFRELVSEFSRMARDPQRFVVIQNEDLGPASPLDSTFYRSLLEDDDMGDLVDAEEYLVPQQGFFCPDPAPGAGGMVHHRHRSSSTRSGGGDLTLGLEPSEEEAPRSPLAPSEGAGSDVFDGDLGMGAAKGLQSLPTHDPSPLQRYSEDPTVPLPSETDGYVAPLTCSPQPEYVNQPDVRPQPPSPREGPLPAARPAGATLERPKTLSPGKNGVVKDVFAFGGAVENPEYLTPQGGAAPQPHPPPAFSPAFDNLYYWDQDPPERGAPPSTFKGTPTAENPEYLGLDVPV
Assay: reducers of endogenous Her2 protein level, primary screen, SKBR3 breast tumor cells, AlphaScreen, ATP viability (AID 461);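 as to Her2 level: lower value means less Her2 protein in the cells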;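 as to viability: percent of carrier control wells set as 100% viability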
Settings: 18-24 h, at 10 µM, stronger effect = lower value
READOUT_TYPE: Her2 level (%)
Give bare numbers, in %.

Give me Her2 level for each of these compounds, listed below.
1. Cc1ccc(Nc2cc(C)nc3ncnn23)c(Cl)c1
2. CCOC(=O)c1cc(-c2ccco2)nc2c1c(C)nn2CCC#N
3. COc1ccc2[nH]c(=O)c(CN(CCO)S(=O)(=O)c3ccc4c(c3)OCCO4)cc2c1
4. CCNC(=O)N1c2ccc(OCC)cc2C(C)=CC1(C)C
5. CCn1c(C)c(CCC(=O)O)c(=O)n2nc(-c3ccccc3OC)cc12
6. COC(=O)COc1ccc(S(=O)(=O)NCCC2=CCCCC2)cc1

RESULT:
1: 88.5; 2: 101; 3: 97.5; 4: 99.5; 5: 104; 6: 83.5

I would be grateful if you could provide Her2 level for each of the following entries.
1. Cn1ccnc1SCCC#N
2. COCCNC(=O)CC(NS(=O)(=O)c1ccc(NC(C)=O)cc1)C(C)C (stereo unspecified)
3. CCC(C)(C(=O)NC1CCCCC1)N(CC1CCCO1)C(=O)c1ccccn1 (stereo unspecified)
4. Cn1c(CCCNC(=O)c2ccccc2)nc2ccccc21
5. Nc1sccc1C(=O)c1ccc(Cl)cc1
6. O=C(Oc1cccc2cccnc12)c1cccc(-n2cnnn2)c1
7. COc1ccc(-c2nc3c(c(=O)n(C)c(=O)n3C)n2CC2CC(c3ccccc3)=NO2)cc1OC (stereo unspecified)

RESULT:
1. 89.5
2. 122
3. 99
4. 83
5. 85
6. 82
7. 85

Respectfully, I request Her2 level for each entry included below.
1. O=C1CCN(C(=O)c2ccccc2)C2CCCCC12 (stereo unspecified)
2. CCN(Cc1cc2cc(OC)ccc2[nH]c1=O)C(=O)c1ccncc1
3. N#Cc1cnc(SCC(=O)Nc2ccccc2C(F)(F)F)nc1N
4. COCCN1C(=O)C(=O)/C(=C(/O)c2ccc(OC(C)C)cc2)C1c1cccnc1 (stereo unspecified)
5. Cc1ccc(NC(=O)C2CC=CCC2C(=O)N2CCCCC2)cc1 (stereo unspecified)

RESULT:
1. 124
2. 100
3. 81.5
4. 86.5
5. 76.5

###

Give viability for every item shown.
Experiment: growth inhibitors of H69AR lung tumor, primary screen, human, duplicate replicates (AID 580);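 also: 100% = mean luminescence of untreated wells and 0% = no signal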
Conditions: H69AR lung tumor cells viability, ATP luminescence, 72 h; at 10 µM; stronger effect = lower value
One number for each entry, in %.

Some compounds with recorded viability:
{"columns": ["COMPOUND", "UNIT_DESCRIPTOR", "viability"],
 "data": [
  ["O=C1C2CCCN2C(c2ccc(Cl)cc2)N1c1nccs1 (centres undefined)", "%", 97.4],
  ["COc1ccc2c(c1)C(=NO)c1cc(OC)ccc1-2", "%", 83.8],
  ["CCOC(=O)CSC1=Nc2ccccc2C2=NC(CC(=O)NCc3ccc(OC)cc3)C(=O)N12 (centres undefined)", "%", 99.7],
  ["Cc1ccc(NC2=NC3(CCCCC3)N=C(N)N2)c(C)c1", "%", 102],
  ["Cc1cccn2cc(-c3ccccc3)nc12", "%", 91.5],
  ["c1cc(CNc2ccc3c(c2)OCO3)ccn1", "%", 90],
  ["O=C(O)CN1C(=O)C2(OCCCO2)c2ccccc21", "%", 85.1],
  ["CC(C)(C)Cc1nc(-c2ccccn2)no1", "%", 100]
]}

Take each entry in turn and give its viability.
1. CCN(CC)CCNC(=O)CCn1c(=S)[nH]c2cc3c(cc2c1=O)OCO3
2. CCOc1cc(C2C(C(=O)OC(C)C)=C(C)N=C3SCCC(=O)N32)ccc1OC(C)=O (centres undefined)
3. COc1cc(C2=NOC(C(=O)NCc3ccc(F)cc3)C2)cc(OC)c1OC (centres undefined)

RESULT:
1: 90.1; 2: 93.3; 3: 31.6

Below are 3 compounds. Give each one its viability.
1. CCCn1c(NC(=O)C2COc3ccccc3O2)nc2ccccc21 (centres undefined)
2. CCCCOCCCNC(=O)c1ccccc1OCC
3. CCc1cccc2c(=O)c(C(=O)N3CCCCCC3)c[nH]c12

RESULT:
[67.8, 87.8, 97.5]

Return reported viability values for all items listed beneath this line.
1. Nc1nnn(Cc2ccccc2)n1
2. O=c1c2c3c(sc2nc2sc(C4CC4)nn12)CCCC3
3. CCOC(=O)C1CCN(C(=O)c2ccc(OC)cc2OC)CC1

RESULT:
1. 119
2. 79.7
3. 106

###

Consider the following compounds; for each one, report its inhibition.
Assay: 384-well plate pilot, post-Golgi transport modulator project, inhibition of yeast transport mutant growth (AID 636)
Details: absorbance 615 nm, about 18 h, stronger effect = higher value
Answers are plain numbers, in %.

// solved cases for inhibition follow
{"columns": ["COMPOUND", "inhibition (%)"],
 "data": [
  ["CCCS(=O)(=O)N1CCN(Cc2ccc(OCc3ccccc3)c(OC)c2)CC1", 4.19],
  ["COc1ccccc1OCc1ccc(C(=O)OCC2CCCO2)o1 (configuration not stated)", -5.39],
  ["COc1ccc(NC(C)=O)cc1NC(=O)CN1CCN(c2ccccn2)CC1", -1.87],
  ["O=c1cnnc(NCc2ccccc2)[nH]1", -5.79],
  ["CC(C)OCCCNC(=O)c1cc2c(s1)CS(=O)(=O)C2", 1.03]
]}

Provide each entry's inhibition from the list below.
1. O=C(Nc1ccc2snnc2c1)N1CCSCC1
2. O=C(Cn1cnc2c(nnn2Cc2ccc(Cl)cc2)c1=O)NCC1CCCO1 (configuration not stated)
3. Cc1ccc(NC(=O)CCN2CCc3ccccc3C2)cc1
4. Cc1ccc(Nc2nc(N)nc(CN3CCCCCC3)n2)cc1
5. COc1cccc(-c2noc(-c3cccs3)n2)c1
6. Cc1ccc(CNC(=O)CSc2n[nH]c(N)n2)cc1
7. CSc1nc(NC(C)(C)C)nc(Oc2ccc(=O)[nH]n2)n1

RESULT:
1: 0.77; 2: -10.1; 3: -5.21; 4: -1.69; 5: 2.08; 6: 0.79; 7: -3.82

###

Test: reversal of MRP1-mediated doxorubicin resistance, pilot screen, H69AR cells, doxorubicin co-treatment (AID 601)
Conditions: H69AR cells + 2 uM doxorubicin, CellTiter-Glo, 72 h; at 10 µM; stronger effect = higher value
READOUT_TYPE: differential viability (reversal) (%)
One number for each entry, in %.

Use the examples below as a reference point.
{"columns": ["MOLECULE", "READOUT_TYPE", "UNIT_DESCRIPTOR", "RESULT"],
 "data": [
  ["CCOc1ccccc1Nc1ncnc2ccccc12", "differential viability (reversal)", "%", 1.99],
  ["Cc1ccc(C2c3sc(=O)[nH]c3SC3C(=O)NC(=O)C32)cc1 (configuration not stated)", "differential viability (reversal)", "%", 6.17],
  ["CCOc1ccc(C(=O)N(Cc2ccc(N(C)C)cc2)C2CCS(=O)(=O)C2)cc1 (configuration not stated)", "differential viability (reversal)", "%", -16.6]
]}

Batch request: differential viability (reversal) per item, same order as input.
1. COc1cc(CC(=O)Nc2ncc(C)s2)cc(OC)c1OC
2. CN1C(=O)CCC1(O)c1ccccc1 (configuration not stated)
3. CC(C)(C)c1ccc(C(=O)Nc2cnccn2)cc1
4. Fc1ccccc1-c1nc(NCCCN2CCOCC2)c2ccccc2n1
5. CCn1c(=N)n(CC(O)c2ccco2)c2ccccc21 (configuration not stated)
6. NC(=O)COC(=O)CNC(=O)c1ccc(Cl)cc1

RESULT:
1: 2.69; 2: 0.975; 3: 18.8; 4: -7.69; 5: 10.3; 6: 16.1

For each listed entry, give its differential viability (reversal).
1. NS(=O)(=O)c1ccc(NCc2c(F)cccc2Cl)cc1
2. COc1cc(C(=O)Nc2ccc(-n3cnnn3)c(C)c2)cc(OC)c1OC
3. CNC(=O)CSc1nnc(-c2cc3c(C)nn(-c4ccccc4)c3s2)n1C

RESULT:
1. 6.38
2. -24.8
3. 22.3

###

Please provide measured viability for the entries that follow.
Assay: reducers of endogenous Her2 protein level, primary screen, SKBR3 breast tumor cells, AlphaScreen, ATP viability (AID 461);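 as to viability: percent of carrier control wells set as 100% viability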
Conditions: 18-24 h, measured here: SKBR3 viability, ATP luminescence, at 10 µM
Give bare numbers, in %.

{"columns": ["MOLECULE", "UNIT_DESCRIPTOR", "viability"],
 "data": [
  ["O=C1CCCC2=C1C(c1ccsc1)CC(=O)N2c1ccccc1 (stereo not drawn)", "%", 90.5],
  ["O=C(c1ccc2c(c1)c(=O)oc1ccccc12)N1CCCCC1", "%", 109],
  ["O=c1c2nnn(Cc3ccc(Cl)cc3)c2ncn1Cc1ccc(F)cc1", "%", 124]
]}

Items follow; give viability for each.
1. Cc1ccc(-c2ccc(=O)n(CCC(=O)NCc3ccccn3)n2)cc1
2. Cc1nc(SCC(=O)N2CCC(C(N)=O)CC2)n[nH]1
3. Cc1ccc2c(c1)NC(=O)C(CC(=O)NCCN(CC(C)C)CC(C)C)O2 (stereo not drawn)
4. CC(C(=O)N1CCCCC1)n1ncn2cccc2c1=O (stereo not drawn)
5. CN1C(=O)C2(NCCc3c2[nH]c2ccccc32)c2ccccc21 (stereo not drawn)
6. COCCSc1nnc(NC(=O)Cc2ccccc2OC)s1
7. COc1ccc(NC(=O)CCCN2C(=O)C3C4C=CC(C4)C3C2=O)c(OC)c1 (stereo not drawn)

RESULT:
94.5
94.5
88
93.5
114
106
110

Hi team, please reply with viability for each item in this list.
1. Cc1nc2c(C(=O)O)cnn2c(C)c1Cc1ccccc1F
2. CC1CCN(S(=O)(=O)c2ccc(NC(=O)CSc3nnnn3C)cc2)CC1
3. COc1ccc(C(NC(=O)C(C)(C)C)NC(=O)C(C)(C)C)cc1
4. CCOC(=O)C1CCCN(C(=O)c2ccc(CS(=O)(=O)Cc3ccccc3C)o2)C1 (stereo not drawn)
5. CC1(C)Cc2cccc(OCC(=O)O)c2O1
6. Cc1ccc(C)c(OCC(O)CN2C(C)CCCC2C)c1 (stereo not drawn)

RESULT:
97.5
94.5
86
94.5
107
70

I have 3 molecules here; please give me viability for each one.
1. OCCNc1nc2ccc(Cl)cc2[nH]1
2. CCOc1ccc(C(C)=O)cc1COc1ccc(-n2cnnn2)cc1
3. COc1ccc(-c2cc(C(F)(F)F)nc(N3CCN(c4ccc(F)cc4)CC3)n2)cc1OC

RESULT:
[84, 99, 78.5]

Please supply viability for each of the following items, keeping them in order.
1. Cc1ccc(NC(=O)Cn2cccc2)cc1Cl
2. CCCC(=O)Nc1ccccc1-c1nnn(CC(=O)Nc2ccc(OCC)cc2)n1
3. CCc1nc2c(cnn2-c2ccc(Cl)cc2)c(=O)n1-c1ccc2c(c1)OCCO2
4. CCCn1c(=O)c2ccccc2n2c(SCc3cc(=O)n4ccsc4n3)nnc12

RESULT:
[94, 108, 90, 79.5]
